Test system: DENV-3
Assay: Viral yield assay against DENV-3 in Vero cells
Type: cell-based
Details: Dengue virus, DENV3
EC50 by entry:

Example cases with answers are listed next.
{"columns": ["Compound structure string", "EC50"],
 "data": [
  ["CN1CCc2nc3sc(C(=O)Nc4ccc(OC(F)(F)F)cc4)c(NCC(=O)O)c3cc2C1", "5 to 25 µM"],
  ["O=C(O)CNc1c(C(=O)Nc2nnc(-c3ccccc3)s2)sc2nc3c(cc12)CCCCC3", "< 5 µM"],
  ["O=C(O)CCC(=O)Nc1c(C(=O)Nc2cccc(C(F)(F)F)c2)sc2nc(-c3cccs3)ccc12", "< 5 µM"]
]}

// below: EC50 requested for another compound
Request: Item under review: O=C(Nc1c(C(=O)Nc2nnc(-c3ccccc3)s2)sc2nc3c(cc12)CCCCC3)c1ccccc1 . Reported EC50?
Response: < 5 µM

====

EC50 by entry:
Test system: DENV-1
Assay: Viral yield assay against DENV-1 in Vero cells
Type: cell-based
Conditions: Dengue virus, DENV1, viral yield assay

{"columns": ["Compound", "EC50"],
 "data": [
  ["Cc1cc(Br)ccc1NC(=O)c1sc2nc(-c3ccc4c(c3)OCO4)ccc2c1N [Compound 497]", "< 5 µM"],
  ["N#Cc1c(O)nc2sc(C(=O)Nc3ccc(Br)cc3)c(N)c2c1-c1ccco1 [Compound 325]", "< 5 µM"],
  ["Nc1c(C(=O)Nc2ccc(OC(F)(F)F)cc2)sc2nc(-c3ccc(Cl)cc3)ccc12 [Compound 331]", "< 5 µM"]
]}

// below: EC50 requested for another compound
Request: Item under review: COc1ccc(-c2ccc3c(N)c(C(=O)Nc4ccc(C)c(F)c4)sc3n2)cc1OC [Compound 533] . Reported EC50?
Response: < 5 µM

====

EC50 by entry:
System: DENV-4
Assay: Viral yield assay against DENV-4 in Vero cells
Type: cell-based
Conditions: Dengue virus, DENV4, viral yield assay

Example cases with answers are listed next.
{"columns": ["Compound structure string", "Study system", "EC50"],
 "data": [
  ["Cc1cc(Br)ccc1NC(=O)c1sc2nc(-c3ccc4c(c3)OCO4)ccc2c1N", "DENV-4", "< 5 µM"],
  ["COc1cccc(-c2ccc3c(N)c(C(=O)Nc4cccc(Cl)c4C)sc3n2)c1", "DENV-4", "< 5 µM"]
]}

Request: Item under review: Nc1c(C(=O)Nc2cccc(F)c2)sc2nc(-c3ccc(F)cc3)ccc12 . Reported EC50?
Response: < 5 µM

====

EC50 by entry:
Test system: DENV-1
Experiment: Viral yield assay against DENV-1 in Vero cells
Type: cell-based
Conditions: Dengue virus, DENV1, viral yield assay

Example cases with answers are listed next.
{"columns": ["Compound", "EC50"],
 "data": [
  ["Nc1c(C(=O)Nc2ccc(C(F)(F)F)cc2)sc2nc(-c3cccs3)ccc12", "< 5 µM"],
  ["Nc1c(C(=O)Nc2ccc(OC(F)(F)F)cc2)sc2nc(-c3ccncc3)ccc12", "< 5 µM"],
  ["COc1cccc(-c2ccc3c(N)c(C(=O)Nc4ccc(F)cc4)sc3n2)c1", "< 5 µM"],
  ["CC(F)(F)c1ccc(NC(=O)c2sc3nc(-c4ccc(Cl)cc4)ccc3c2N)cc1", "< 5 µM"],
  ["COc1ccc(-c2ccc3c(N)c(C(=O)Nc4ccc(Cl)cc4F)sc3n2)cc1OC", "< 5 µM"]
]}

Request: Item under review: Nc1c(C(=O)Nc2nnc(-c3ccccc3)s2)sc2nc(-c3cccs3)ccc12 . Reported EC50?
Response: < 5 µM

Request: Item under review: Cc1ccc(NC(=O)c2sc3nc(-c4cccs4)ccc3c2N)cc1C . Reported EC50?
Response: < 5 µM

Request: Item under review: Cc1ccc(C)c(NC(=O)c2sc3nc(-c4cccs4)ccc3c2N)c1 . Reported EC50?
Response: < 5 µM

Request: Item under review: Cc1ccc(NC(=O)c2sc3nc(-c4ccc5c(c4)OCO5)ccc3c2N)c(Br)c1 . Reported EC50?
Response: < 5 µM

Request: Item under review: Nc1c(C(=O)Nc2ccc(OC(F)(F)F)cc2)sc2nc(-c3cccc(OC(F)(F)F)c3)ccc12 . Reported EC50?
Response: < 5 µM

Request: Item under review: Nc1c(C(=O)Nc2ccc(Br)cn2)sc2nc(-c3ccc(Cl)cc3)ccc12 . Reported EC50?
Response: < 5 µM

Request: Item under review: Nc1c(C(=O)Nc2ccccc2C(F)(F)F)sc2nc(-c3cccs3)ccc12 . Reported EC50?
Response: < 5 µM

====

pEC50 by entry:
System: Dengue-2 (Strain New Guinea C)
Test: Viral yield assay against Dengue-2 in Vero cells
Type: cell-based, Dengue virus
Conditions: Dengue virus; Vero cells, MOI 0.1, harvested 48 hours post infection; read-out: Activity (EC50 class) against Dengue-2 Virus in Vero cells
pEC50: −log10 of the molar value.

{"columns": ["Compound structure string", "Result"],
 "data": [
  ["COc1ccc(NC(=O)c2sc3nc(-c4ccccc4)cc(C(F)(F)F)c3c2N)cc1", "< 4.60"],
  ["Cc1cc(C)c2c(N)c(C(=O)Nc3ccc4ccccc4c3)sc2n1", "4.60 to 5.30"],
  ["NC(=O)c1sc2nc(-c3cccs3)cc(-c3ccc(F)cc3)c2c1N", "> 5.30"],
  ["COc1ccc(CNC(=O)c2sc3nc4c(cc3c2N)CN(C)CC4)cc1", "< 4.60"],
  ["N#Cc1cc2c(N)c(C(=O)Nc3ccccc3F)sc2nc1N", "< 4.60"]
]}

Request: Lab note: need pEC50 with Dengue-2 (Strain New Guinea C) for entry CCc1nnc(NC(=O)c2sc3nc(C)cc(C(F)(F)F)c3c2N)s1 , please look it up.
Response: 4.60 to 5.30

Request: Lab note: need pEC50 with Dengue-2 (Strain New Guinea C) for entry CCCCN(CCCC)C(=O)c1sc2nc(N3CCOCC3)c3c(c2c1N)CC(C)(C)OC3 , please look it up.
Response: < 4.60

Request: Lab note: need pEC50 with Dengue-2 (Strain New Guinea C) for entry CC(C)N1CCc2nc3sc(C(=O)Nc4ccc(OC(F)(F)F)cc4)c(N)c3cc2C1 , please look it up.
Response: > 5.30

Request: Lab note: need pEC50 with Dengue-2 (Strain New Guinea C) for entry CN1CCc2nc3sc(C(=O)Nc4ccc(F)cc4)c(N)c3cc2C1 , please look it up.
Response: > 5.30

====

Test system: Dengue-2 (Strain New Guinea C)
Assay: Viral yield assay against Dengue-2 in Vero cells
Format: cell-based, Dengue virus
Conditions: Dengue virus; Vero cells, MOI 0.1, harvested 48 hours post infection; read-out: Activity (EC50 class) against Dengue-2 Virus in Vero cells
pEC50: −log10 of the molar value.
pEC50 by entry:

Example cases with answers are listed next.
{"columns": ["Compound", "pEC50"],
 "data": [
  ["COCc1cc(C)nc2sc(C(=O)Nc3ccccc3)c(N)c12 [Compound 124]", "< 4.60"],
  ["Nc1c(C(=O)Nc2ccc3ccccc3c2)sc2nc3c(cc12)CCCC3 [Compound 87]", "4.60 to 5.30"],
  ["NC(=O)c1sc2nc3c(cc2c1N)CCCCC3 [Compound 82]", "4.60 to 5.30"],
  ["COCc1cc(C)nc2sc(C(=O)Nc3ccccc3Cl)c(N)c12 [Compound 185]", "< 4.60"]
]}

// below: pEC50 requested for another compound
Request: Item under review: CN1CCc2nc3sc(C(=O)NCc4ccc5c(c4)OCO5)c(N)c3cc2C1 [Compound 269] . Reported pEC50?
Response: < 4.60

====

Test system: Dengue-2 (Strain New Guinea C)
Experiment: Viral yield assay against Dengue-2 in Vero cells
Format: cell-based, Dengue virus
Conditions: Dengue virus; Vero cells, MOI 0.1, harvested 48 hours post infection; read-out: Activity (EC50 class) against Dengue-2 Virus in Vero cells
Property label: EC50

Example cases with answers are listed next.
{"columns": ["Molecule", "EC50"],
 "data": [
  ["NC(=O)c1sc2nc(C3CC3)cc(-c3ccccc3)c2c1N", "< 5 µM"],
  ["CN1CCc2nc3sc(C(=O)Nc4ccc(F)c(F)c4)c(N)c3cc2C1", "< 5 µM"],
  ["COCc1cc(C)nc2sc3c(=O)n(-c4ccc(C)cc4C)nnc3c12", "> 25 µM"],
  ["CCc1nnc(NC(=O)c2sc3nc4c(cc3c2N)CCCC4)s1", "5 to 25 µM"]
]}

Request: Item under review: CC1(C)Cc2nc3sc4c(=O)n(Cc5ccccc5)cnc4c3cc2CO1 . Reported EC50?
Response: > 25 µM

Request: Item under review: Nc1c(C(=O)Nc2nnc(-c3ccccc3)s2)sc2nc(-c3cccs3)cc(C(F)(F)F)c12 . Reported EC50?
Response: < 5 µM

Request: Item under review: CN1CCc2nc3sc(C(=O)Nc4ccc(F)cc4F)c(N)c3cc2C1 . Reported EC50?
Response: 5 to 25 µM

Request: Item under review: NC(=O)c1sc2nc(-c3cccnc3)ccc2c1N . Reported EC50?
Response: > 25 µM

Request: Item under review: CN1CCc2nc3sc(C(=O)Nc4cccnc4Cl)c(N)c3cc2C1 . Reported EC50?
Response: < 5 µM

Request: Item under review: COCc1cc(C)nc2sc(C(=O)Nc3ccc4c(c3)OCO4)c(N)c12 . Reported EC50?
Response: > 25 µM

Request: Item under review: Cc1ccc(F)cc1NC(=O)c1sc2nc3c(cc2c1N)CN(C)CC3 . Reported EC50?
Response: < 5 µM

Request: Item under review: CN1CCc2nc3sc(C(=O)Nc4c(Cl)cccc4Cl)c(N)c3cc2C1 . Reported EC50?
Response: 5 to 25 µM

Request: Item under review: Nc1c(C(=O)N2CCCCC2)sc2nc3c(cc12)CCCCC3 . Reported EC50?
Response: > 25 µM

Request: Item under review: COc1ccc(-c2cc(C3CC3)nc3sc(C(N)=O)c(N)c23)cc1 . Reported EC50?
Response: < 5 µM

Just for reference, patent US20170121344A1 is where these values come from.
